meta.source: the supplement of paper PMC10724198

System: Saccharomyces cerevisiae;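 note: PSI is a weighted mean of sequencing reads over stability bins, variants kept only with over 10 reads, mCherry proximal and sfGFP distal, peptide attached via GGGS linker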
Method Description: protein stability index of tFT-peptide fusion (C-terminal peptide) (PSI (0-1 scale)); higher = more stable (slower turnover)
Conditions: genetic background: wild type; temperature: 30 C
Rule: protein stability index of 0.3 or more gives t; anything lower gives f.

# count of solved cases: 6
SPIGIFCFILCR = f
FLFCMIFIFRCF = f
GYRFSILSILRV = t
INKRDARIHLLM = t
YGHLPLLVLFCV = f
ILCVEFFVSVSV = f

Check the entry "CIHMNCSMMIIS" : does protein stability index equal or exceed 0.3?
f

// inclusive: protein stability index at least 0.3? input: "DIRLWISCTLWF"
f
